System: Plasmodium falciparum
Test Details: Confirmatory screen in NF54 pLDH assay, in single point, at 2uM, 72h
Type: functional, Erythrocyte
Condition Summary: timepoint 72 hour
Screen size: about 4,800 compounds; about 410 (8.5%) showed an effect of 50% or more. Many of the other results were omitted from the sample, so strong results are more common in it than they were.
Readout Label: % Inhibition (%)

Compound	Experimental Result
CC(C)(C)n1nc2nc(NCCN3CCCCC3)nc(-c3ccc(F)c(Cl)c3)c2c1N	76
Cc1nn(C)c(N)c1C(=O)N(C1CCC1)C1CCC1	-16
COc1ccccc1N(Cc1ccccc1)C1=NC(=[N+](Cc2ccccc2)c2ccccc2OC)c2ccccc21	67
CC(C)C(NC(=O)c1ccccc1F)C(=O)NC1CCC(N(C)C)C1 (stereo not drawn)	-9
C[C@H]1CCN(c2nc(-c3ccccn3)nc3c2CCC3)C1	93
C[C@H]1CCCN(S(=O)(=O)NCC(=O)Nc2ccccn2)C1	-14
COc1cccc(NC(=O)c2ccc3c(c2)N(C)[C@@H]2CCCCCN2C3=O)c1	9
CCc1[nH]nc(NC(=O)c2c(C)ccnc2O)c1C	-11
O=S(=O)(c1c(Cl)cccc1Cl)N1CCC[C@@H]1CN1CCCC1	8
CC(=O)c1cccc(NC(=O)c2nonc2C)c1	-11
COc1ccc(NC(=O)C2=NN(CC(=O)Nc3cccc(OC)c3)C(=O)CC2)cc1	-4
Cn1cc(C(=O)c2nc(-c3ccccc3Cl)no2)cn1	-5
Cc1nn(C)cc1-c1n[nH]cc1Br	7
O=S(=O)(c1ccc(Cl)cc1)N1CCC(c2cc(-c3cccc(C(F)(F)F)c3)[nH]n2)CC1	0
CCCN1C(=O)c2ccccc2N2C(=O)CC[C@@]12C(=O)Nc1ccc(OC)cc1	92
Cc1ccccc1N1CCN(C(=O)c2ccc3ncccc3c2)CC1	9
COCc1c(C(=O)N2CCC[C@@H]2CCc2ncc(C)n2C(C)C)noc1C	13
O=C(Nc1cccc(Cl)c1)Nc1cccc(-c2cnc3n2CCC3)c1	75
COCCNc1nc(-c2ccccc2OC)c2c(N)n(-c3ccc(F)cc3)nc2n1	-5
Cn1c(=O)c2sc(N3CCCC3)nc2n(CC(=O)NC2CCCC2)c1=O	4
CN(Cc1ccccc1)C(=O)C[C@H]1CCN(C(=O)NC2CCCC2)C1	2
Cn1cc(NC(=O)Nc2cccc(OCC(F)F)n2)cn1	-7
CC(=O)c1cccc(NC(=O)Cn2c(=O)n(CCc3ccccc3)c(=O)c3ccccc32)c1	10

###

Test system: Plasmodium falciparum
Test Details: Confirmatory screen in NF54 pLDH assay, in single point, at 2uM, 72h
Assay type: functional, Erythrocyte
Condition Summary: timepoint 72 hour
Among all 4,800 compounds or so, about 410 (8.5%) showed an effect of 50% or more. Shown is part of a subset that was picked to be rich in strong results.
% Inhibition values by entry

Molecule	Readout Units	% Inhibition
O=S(=O)(c1cccnc1)N(CC1CCCCC1)c1cnccn1	%	10
Cc1cc(Br)cc(N[C@H](c2cccnc2)c2ncc[nH]2)c1	%	6
CN(C)c1ccc(-c2nc(C(F)(F)F)cc(C(F)(F)C(F)(F)F)n2)cc1	%	5
CC1COCCC1NCc1ncn(Cc2cccc(F)c2)n1 (stereo not drawn)	%	-4
CC(C)c1ccc(-c2nc(CN3CCCCC3)cc(CN3CCCCC3)c2O)cc1	%	95
COc1ccc(NC(=O)c2nc(Nc3ccccc3)c3ccccc3n2)cc1	%	7
CCN(C[C@H](C)C#N)C(=O)C(=O)Nc1ccc(F)cc1Cl	%	13
CC(C)c1nc(O)cc(CN2CCCCC2)n1	%	4
Cc1ccc(-c2ccnc3c(C(=O)N4CCOCC4)cnn23)cc1C	%	2
O=C(O[C@@H](c1ccccc1)N1C(=O)C(C(F)(F)F)(C(F)(F)F)c2ccccc21)C(C(F)(F)F)C(F)(F)F	%	12
Cc1[nH]c2nc3ccccc3n2c(=O)c1Cc1ccccc1Cl	%	-15
COc1cccc(NC(=O)Cn2c(=O)n(C)c(=O)c3sc(N4CCCC4)nc32)c1	%	1
O=C(N[C@@H](N1CCCC1)C(Cl)(Cl)Cl)c1ccc(Cl)cc1	%	-13
Cc1[nH]n(-c2nc(C(F)(F)F)cc(=O)[nH]2)c(=O)c1CCO	%	-9
C[C@H]1CN(Cc2ccccc2)CC2(CCN(C(=O)N(C)C)CC2)O1	%	10
Cc1cc(F)ccc1-n1ccc(C(=O)N(C[C@H]2CCOC2)C2CC2)n1	%	-12
CC1C(Cc2ccccc2)CCN1C(=O)c1cnc(C(F)(F)F)nc1 (stereo not drawn)	%	14
Cc1noc(Cl)c1CC(=O)N1CCCC(C)(C)CC1	%	20
Cc1ccc(C2c3ccsc3CCN2CCC(=O)N2CCN(C(=O)Cc3cccs3)C(C)C2)cc1 (stereo not drawn)	%	26
CCOc1ccc(Nc2c3ccccc3nc3ccccc23)cc1	%	96
COc1cccc(NC(=O)Nc2ccc3c(c2)NC(=O)C(C)(C)O3)c1	%	-4
CCS(=O)(=O)Nc1ccc(Br)cc1Cl	%	-1
Nc1ccc(Cc2nnc3n2CCC3)cc1	%	8
